# SUBJECT_OF_TEST: Aminopeptidase N (Sus scrofa)
# EXPERIMENT_SUMMARY: Inhibition of pig kidney microsomal APN at 10 uM
READOUT_LABEL: inhibition (%)

Past entries and their recorded results:
{"columns": ["COMPOUND", "UOM", "DATA_VALUE"],
 "data": [
  ["O=C(NO)C(Cc1ccccc1)C(=O)NCCc1ccccc1 (stereo not given)", "%", 70],
  ["O=C(CC(=O)NCc1ccc(Cl)cc1)NO", "%", 13],
  ["Cc1ccccc1CNC(=O)C(Cc1ccccc1)C(=O)NO (stereo not given)", "%", 85],
  ["CC(C)CC(C(=O)NO)C(=O)N1CCC(n2c(=O)[nH]c3ccccc32)CC1 (stereo not given)", "%", 54],
  ["O=C(CC(=O)NCc1ccccc1)NO", "%", 19]
]}

1: O=C(NO)C(Cc1cccc(Oc2ccccc2)c1)C(=O)N1CCC(n2c(=O)[nH]c3ccccc32)CC1 (stereo not given)
2: O=C(CC(=O)N1CCN(Cc2ccccc2)CC1)NO
Prompt line: Field: lower inhibition | Options: 1 / 2 Lab log: write the label of the selected item as the result.
Response line: 2
(2: 23%, 1: 76%)

* * *

# SUBJECT_OF_TEST: Aminopeptidase N (Plasmodium falciparum FcB1/Columbia) (UniProt O96935)
# Sequence (O96935 whole entry): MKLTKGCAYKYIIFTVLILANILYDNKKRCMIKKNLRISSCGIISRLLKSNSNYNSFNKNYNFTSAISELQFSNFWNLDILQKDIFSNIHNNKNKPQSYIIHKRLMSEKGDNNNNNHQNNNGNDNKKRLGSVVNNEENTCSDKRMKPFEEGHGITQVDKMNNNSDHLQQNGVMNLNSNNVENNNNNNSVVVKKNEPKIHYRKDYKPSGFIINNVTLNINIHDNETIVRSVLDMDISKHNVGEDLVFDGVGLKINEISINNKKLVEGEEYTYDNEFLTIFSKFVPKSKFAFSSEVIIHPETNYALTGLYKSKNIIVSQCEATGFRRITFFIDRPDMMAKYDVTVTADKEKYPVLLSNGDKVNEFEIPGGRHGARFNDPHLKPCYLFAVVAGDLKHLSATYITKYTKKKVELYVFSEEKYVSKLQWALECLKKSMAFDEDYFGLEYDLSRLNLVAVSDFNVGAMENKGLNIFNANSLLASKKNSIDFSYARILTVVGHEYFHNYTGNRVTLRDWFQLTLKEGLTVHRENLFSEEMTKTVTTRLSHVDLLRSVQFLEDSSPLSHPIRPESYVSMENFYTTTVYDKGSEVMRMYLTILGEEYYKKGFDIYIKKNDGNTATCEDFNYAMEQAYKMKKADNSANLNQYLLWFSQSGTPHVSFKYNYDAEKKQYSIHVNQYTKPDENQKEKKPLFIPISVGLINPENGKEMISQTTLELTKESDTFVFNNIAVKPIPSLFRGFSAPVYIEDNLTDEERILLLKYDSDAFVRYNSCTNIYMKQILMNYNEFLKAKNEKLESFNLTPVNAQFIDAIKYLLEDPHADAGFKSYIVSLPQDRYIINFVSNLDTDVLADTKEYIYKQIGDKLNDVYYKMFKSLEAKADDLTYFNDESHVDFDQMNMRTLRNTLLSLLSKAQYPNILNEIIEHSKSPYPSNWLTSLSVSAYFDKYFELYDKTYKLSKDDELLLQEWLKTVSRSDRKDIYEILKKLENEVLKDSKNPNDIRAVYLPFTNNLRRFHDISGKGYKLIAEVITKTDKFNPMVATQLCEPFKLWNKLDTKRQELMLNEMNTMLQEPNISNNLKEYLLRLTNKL
# EXPERIMENT_SUMMARY: Inhibition of Plasmodium falciparum FcB1 M1 aminopeptidase at 10 uM
READOUT_LABEL: inhibition (%)

Example results:
{"columns": ["MOLECULE", "SUBJECT_OF_TEST", "inhibition (%)"],
 "data": [
  ["O=C(NO)C(Cc1cccc(Oc2ccccc2)c1)C(=O)NCc1cccnc1 (stereo unspecified)", "Aminopeptidase N (Plasmodium falciparum FcB1/Columbia) (UniProt O96935)", 99],
  ["CN(Cc1ccccc1)C(=O)C(Cc1ccccc1)C(=O)NO (stereo unspecified)", "Aminopeptidase N (Plasmodium falciparum FcB1/Columbia) (UniProt O96935)", 45]
]}

a: CN(Cc1ccccc1)C(=O)C(N)C(=O)NO (stereo unspecified)
b: O=C(CC(=O)N1CCN(Cc2ccc3c(c2)OCO3)CC1)NO
Prompt line: Which record shows the lower inhibition: the first, a , or the second, b ? Use the label to indicate which entry you chose.
Response line: a
(a: -1%, b: 7%)

I: NC(C(=O)NO)C(=O)NC1CCN(Cc2ccccc2)CC1 (stereo unspecified)
II: O=C(CC(=O)NCCc1ccccc1)NO
III: CC(C)CC(C(=O)NO)C(=O)NCc1ccccc1 (stereo unspecified)
Prompt line: Put the items in sequence by inhibition, from largest down. A complete answer lists every label in the requested sequence.
Response line: III, II, I

* * *

# SUBJECT_OF_TEST: UniProt P15145
# EXPERIMENT_SUMMARY: Inhibition of pig kidney microsomal APN at 10 uM
READOUT_LABEL: inhibition (%)

P: NC(C(=O)NO)C(=O)NCCc1ccccn1 (configuration not stated)
Q: O=C(CC(=O)NCc1cccc(-c2ccccc2)c1)NO
Prompt line: Parameter check: reported inhibition is higher for which label, P or Q ? # reply format: chosen label
Response line: Q
(Q: 66%, P: 22%)

* * *

# SUBJECT_OF_TEST: Aminopeptidase N (Sus scrofa) (UniProt P15145)
# Sequence (P15145 whole entry): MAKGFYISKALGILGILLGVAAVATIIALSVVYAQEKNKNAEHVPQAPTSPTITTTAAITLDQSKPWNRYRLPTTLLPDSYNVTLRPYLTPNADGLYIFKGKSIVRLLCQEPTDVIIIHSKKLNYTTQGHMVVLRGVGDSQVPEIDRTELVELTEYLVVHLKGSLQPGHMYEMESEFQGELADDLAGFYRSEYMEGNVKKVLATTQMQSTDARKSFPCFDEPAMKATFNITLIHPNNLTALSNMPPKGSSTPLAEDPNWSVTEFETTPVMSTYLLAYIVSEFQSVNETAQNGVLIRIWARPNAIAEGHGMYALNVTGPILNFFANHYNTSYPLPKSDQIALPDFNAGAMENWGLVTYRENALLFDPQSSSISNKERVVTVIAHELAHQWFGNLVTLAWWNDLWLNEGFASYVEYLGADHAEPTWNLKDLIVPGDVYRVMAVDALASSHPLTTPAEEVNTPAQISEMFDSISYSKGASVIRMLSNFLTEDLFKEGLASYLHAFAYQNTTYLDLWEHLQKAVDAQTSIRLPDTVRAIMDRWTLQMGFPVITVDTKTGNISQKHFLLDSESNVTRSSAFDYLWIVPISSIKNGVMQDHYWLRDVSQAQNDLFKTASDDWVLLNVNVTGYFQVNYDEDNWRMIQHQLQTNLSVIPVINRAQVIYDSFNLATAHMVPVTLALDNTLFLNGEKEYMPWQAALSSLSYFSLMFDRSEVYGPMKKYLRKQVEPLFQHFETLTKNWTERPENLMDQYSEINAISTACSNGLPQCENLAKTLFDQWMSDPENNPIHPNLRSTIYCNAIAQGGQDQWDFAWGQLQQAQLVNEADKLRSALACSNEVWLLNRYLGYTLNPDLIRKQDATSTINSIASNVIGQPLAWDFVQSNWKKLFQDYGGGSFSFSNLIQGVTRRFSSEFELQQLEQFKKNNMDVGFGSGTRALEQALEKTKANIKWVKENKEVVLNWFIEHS
# EXPERIMENT_SUMMARY: Inhibition of pig kidney microsomal APN at 10 uM
READOUT_LABEL: inhibition (%)

{"columns": ["COMPOUND", "UOM", "inhibition"],
 "data": [
  ["O=C(CC(=O)NCc1cccc(Oc2ccccc2)c1)NO", "%", 55]
]}

I: O=C(NO)C(Cc1cccc(Oc2ccccc2)c1)C(=O)NC1CCN(Cc2ccccc2)CC1 (stereo not drawn)
II: O=C(NO)C(Cc1ccccc1)C(=O)NCCc1ccccn1 (stereo not drawn)
Prompt line: Sorting ascending by inhibition, which comes first: I or II ? When you have decided, please share the label of that item.
Response line: II

a: O=C(NO)C(Cc1cccc(Oc2ccccc2)c1)C(=O)NC1Cc2ccccc2C1 (stereo not drawn)
b: O=C(CC(=O)N1CCC(Cc2ccccc2)CC1)NO
Prompt line: // compare measured inhibition, left a , right b , return larger Lab note: record the label of whichever item you select.
Response line: a

a: CC(C)CC(C(=O)NO)C(=O)NCCCN(C)c1ccccc1 (stereo not drawn)
b: CC(C)CC(C(=O)NO)C(=O)N1CCC2(CC1)C(=O)NCN2c1ccccc1 (stereo not drawn)
c: NC(C(=O)NO)C(=O)NCCCCc1ccccc1 (stereo not drawn)
d: NC(C(=O)NO)C(=O)N1CCN(C(c2ccccc2)c2ccccc2)CC1 (stereo not drawn)
Prompt line: # sort list by recorded inhibition, greatest to least Return value: ordered labels per request.
Response line: a, c, b, d

1: CC(C)CC(C(=O)NO)C(=O)NCc1ccc(F)cc1 (stereo not drawn)
2: O=C(NO)C(Cc1cccc(Oc2ccccc2)c1)C(=O)NCCC(c1ccccc1)c1ccccc1 (stereo not drawn)
3: O=C(CC(=O)NCCc1ccccc1)NO
Prompt line: Order the entries by their reported inhibition, beginning at the minimum. Use the labels to give the ranking in the order requested.
Response line: 3, 2, 1
(3: 27%, 2: 59%, 1: 92%)

A: O=C(NO)C(Cc1ccccc1)C(=O)NCc1cccc(Oc2ccccc2)c1 (stereo not drawn)
B: CC(C)CC(C(=O)NO)C(=O)N(C)Cc1ccccc1 (stereo not drawn)
C: NC(C(=O)NO)C(=O)N1CCN(Cc2ccc3c(c2)OCO3)CC1 (stereo not drawn)
Prompt line: Write the entries in order, lowest recorded inhibition first. // respond by listing labels in the order requested
Response line: C, B, A
(C: 23%, B: 37%, A: 83%)

I: O=C(NO)C(Cc1cccc(Oc2ccccc2)c1)C(=O)NCCCc1ccccc1 (stereo not drawn)
II: CC(C)CN(CCCCc1ccccc1)C(=O)CC(=O)NO
III: CC(C)CC(C(=O)NO)C(=O)N1CCC2(CCNc3ccccc3O2)CC1 (stereo not drawn)
Prompt line: Put the compounds in ascending order of inhibition. Arrange the labels as the request states and list them.
Response line: III, II, I
(III: 21%, II: 45%, I: 89%)

I: O=C(NO)C(Cc1cccc(Oc2ccccc2)c1)C(=O)N1CCN(c2ccccc2)CC1 (stereo not drawn)
II: CC(C)CC(C(=O)NO)C(=O)NCCCc1ccccc1 (stereo not drawn)
Prompt line: From the recorded data, which exceeds the other in inhibition: I or II ? Write the label of whichever entry you select.
Response line: II
(II: 95%, I: 63%)
